system: Leishmania major promastigotes (vaccine strain MRHO/IR/75/ER); assay: Antileishmanial activity against Leishmania major promastigotes; format: cell-based; conditions: Leishmania major, 24 h, read-out: Anti-promastigote activity IC50
pIC50: −log10 of the molar value.

>  <compound>
O=[N+]([O-])c1ccc(-c2nnc(N3CCC(O)CC3)s2)o1 [Compound 5a]

>  <pIC50>
4.16

$$$$
>  <compound>
O=[N+]([O-])c1ccc(-c2nnc(N3CCC(O)CC3)s2)s1 [Compound 5b]

>  <pIC50>
4.57

$$$$
>  <compound>
OC(Cn1cncn1)(Cn1cncn1)c1ccc(F)cc1F [Fluconazole, reference compound]

>  <pIC50>
3.03

$$$$
